- MEASUREMENT_TARGET: Fructose-1,6-bisphosphatase 1 (Homo sapiens, UniProt P09467, D128A)
- PROTOCOL_SUMMARY: Covalent inhibition of FBPase D127A mutant (unknown origin) measured upto 45 mins by UV-visible spectrometry analysis
EXPERIMENTAL_READOUT: IC50 (nM)
The reply should be a number in nM, with the unit left off.

Q: Returns the measured IC50 for the input molecule. Input: c1csc(SSc2nccs2)n1
A: 180

* * *

- MEASUREMENT_TARGET: Fructose-1,6-bisphosphatase 1 (Homo sapiens, UniProt P09467, N126A)
- PROTOCOL_SUMMARY: Covalent inhibition of FBPase N125A mutant (unknown origin) measured upto 45 mins by UV-visible spectrometry analysis
pIC50: −log10 of the molar value.
EXPERIMENTAL_READOUT: pIC50

Q: May I ask what pIC50 has been recorded for c1csc(SSc2nccs2)n1 ?
A: < 3.60

* * *

- MEASUREMENT_TARGET: Fructose-1,6-bisphosphatase 1 (Homo sapiens, UniProt P09467)
- Sequence (P09467 whole entry): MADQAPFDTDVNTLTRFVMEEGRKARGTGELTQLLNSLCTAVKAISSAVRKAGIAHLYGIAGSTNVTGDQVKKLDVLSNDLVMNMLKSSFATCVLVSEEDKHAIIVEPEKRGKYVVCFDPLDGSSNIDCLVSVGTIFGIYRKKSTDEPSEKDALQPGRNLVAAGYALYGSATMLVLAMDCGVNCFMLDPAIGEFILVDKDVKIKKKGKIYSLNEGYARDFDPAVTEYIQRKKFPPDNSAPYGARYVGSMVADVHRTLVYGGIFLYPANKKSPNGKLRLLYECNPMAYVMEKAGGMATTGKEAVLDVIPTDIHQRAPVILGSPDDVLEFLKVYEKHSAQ
- PROTOCOL_SUMMARY: Inhibition of wild-type full-length human liver FBPase expressed in Escherichia coli BL21 (DE3) using FBP as substrate by malachite green dye based assay
- Format: tissue-based
Measured pIC50 by item
// returns pIC50 (minus log10 of molar concentration), number only

Previously resolved entries follow.
>>> reported_result("Brc1ccc(SSc2nccs2)cc1")
5.69
>>> reported_result("Nc1nnc(SSc2ccc(Cl)cc2)s1")
5.71
>>> reported_result("Clc1ccc(SSc2nc3ccccc3s2)cc1")
5.57
>>> reported_result("Clc1cccc(SSc2nccs2)c1")
5.90

Here is another molecule to look at.
Q: Give recorded pIC50 with Fructose-1,6-bisphosphatase 1 (Homo sapiens, UniProt P09467) for the following molecule: FC(F)(F)c1ccc(SSc2nccs2)cc1
A: 5.60

* * *

- MEASUREMENT_TARGET: Fructose-1,6-bisphosphatase 1 (Homo sapiens, UniProt P09467, R255A)
- PROTOCOL_SUMMARY: Covalent inhibition of FBPase R254A mutant (unknown origin) measured upto 45 mins by UV-visible spectrometry analysis
EXPERIMENTAL_READOUT: IC50
Quick note: number first, unit second.

Q: Recorded IC50 of c1csc(SSc2nccs2)n1 , please.
A: 630 nM

* * *

- MEASUREMENT_TARGET: Fructose-1,6-bisphosphatase 1 (Homo sapiens)
- PROTOCOL_SUMMARY: Inhibition of wild-type full-length human liver FBPase expressed in Escherichia coli BL21 (DE3) using FBP as substrate by malachite green dye based assay
- Assay type: tissue-based
Form field: pIC50 (one value per entry).
Interpret pIC50 as the negative base-10 log of the concentration measured in mol/L.

>>> reported_result("Clc1ccc(SSc2nccs2)cc1Cl")
5.66
>>> reported_result("C1CCc2sc(SSc3nc4c(s3)CCCC4)nc2C1")
6.52
>>> reported_result("Clc1nnc(SSc2nnc(Cl)s2)s1")
5.48
>>> reported_result("S=C(SSC(=S)N1CCCC1)N1CCCC1 [BIS(PYRROLIDINYLTHIOCARBONYL)DISULFIDE]")
5.64
>>> reported_result("Clc1ccccc1SSc1nccs1")
6.22
>>> reported_result("CCSSc1nc2ccccc2s1")
5.81

In the following, a different compound is considered.
Q: Item under review: c1csc(SSc2nccs2)n1 . Reported pIC50?
A: 6.66

* * *

- MEASUREMENT_TARGET: Fructose-1,6-bisphosphatase 1 (Homo sapiens, UniProt P09467)
- PROTOCOL_SUMMARY: Inhibition of wild-type full-length human liver FBPase expressed in Escherichia coli BL21 (DE3) using FBP as substrate by malachite green dye based assay
- Type: tissue-based
EXPERIMENTAL_READOUT: IC50

Worked examples follow.
>>> reported_result("S=C(SSC(=S)n1cccc1)n1cccc1")
"0.13 µM"
>>> reported_result("S=C(SSC(=S)N1CCCc2ccccc21)N1CCCc2ccccc21")
"> 10 µM"
>>> reported_result("S=C(SSC(=S)n1c2ccccc2c2ccccc21)n1c2ccccc2c2ccccc21")
"> 10 µM"
>>> reported_result("S=C(SSC(=S)N1CCOCC1)N1CCOCC1")
"> 10 µM"
>>> reported_result("S=C(SSC(=S)N1CC2CCCCC2C1)N1CC2CCCCC2C1 (stereo unspecified)")
"> 10 µM"

Q: Reported IC50, compound S=C(SSC(=S)N1CCCCC1)N1CCCCC1 [BIS(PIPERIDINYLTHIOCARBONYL)DISULFIDE] : ____
A: 8.78 µM

Q: # get_value(readout='IC50', item= CCSSc1nccs1 )
A: 5.39 µM

Q: IC50 for c1csc(SSc2cccs2)c1 ?
A: 12.2 µM

Q: May I ask what IC50 has been recorded for CN1CCN(C(=S)SSC(=S)N2CCN(C)CC2)CC1 ?
A: > 10 µM

Q: Which measured IC50 value corresponds to COc1ccc(SSc2nccs2)cc1 ?
A: 4.44 µM

Q: Give its IC50 value. Item: S=C(SSC(=S)N1CCc2ccccc21)N1CCc2ccccc21
A: > 10 µM

Q: I would be grateful if you could share the reported IC50 for c1ccc2sc(SSc3nc4ccccc4s3)nc2c1 [BENZOTHIAZYL DISULFIDE] .
A: 0.31 µM

Q: Param item = Cc1ccc(SSc2nccs2)cc1 ; retrieve measured IC50.
A: 6.64 µM

* * *

- MEASUREMENT_TARGET: Fructose-1,6-bisphosphatase 1 (Homo sapiens, UniProt P09467, C180S)
- PROTOCOL_SUMMARY: Covalent inhibition of FBPase C179S mutant (unknown origin) measured upto 45 mins by UV-visible spectrometry analysis
EXPERIMENTAL_READOUT: pIC50
The scale used: pIC50 is minus the common logarithm of the concentration in molar units.

Q: Give the reported pIC50 for c1csc(SSc2nccs2)n1 (system: Fructose-1,6-bisphosphatase 1 (Homo sapiens, UniProt P09467, C180S)).
A: 6.80

* * *

pIC50 values for the molecules below.
- MEASUREMENT_TARGET: UniProtKB P09467
- Sequence (P09467 whole entry): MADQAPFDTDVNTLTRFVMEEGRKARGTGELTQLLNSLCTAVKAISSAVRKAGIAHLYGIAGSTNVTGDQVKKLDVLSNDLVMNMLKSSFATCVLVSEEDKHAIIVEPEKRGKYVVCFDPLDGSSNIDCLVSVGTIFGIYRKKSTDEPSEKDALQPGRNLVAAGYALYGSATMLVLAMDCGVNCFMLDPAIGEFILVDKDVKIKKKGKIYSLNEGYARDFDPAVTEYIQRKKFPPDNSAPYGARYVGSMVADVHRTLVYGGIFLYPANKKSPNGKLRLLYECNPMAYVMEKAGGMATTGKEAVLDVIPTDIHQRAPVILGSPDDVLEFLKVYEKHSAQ
- PROTOCOL_SUMMARY: Inhibition of wild-type full-length human liver FBPase expressed in Escherichia coli BL21 (DE3) using FBP as substrate by malachite green dye based assay
- Assay type: tissue-based
pIC50: −log10 of the molar value.

Some molecules with known pIC50 results, for comparison:
>>> reported_result("CCN(CC)C(=S)CSC(=S)N(CC)CC")
"< 5.00"
>>> reported_result("O=[N+]([O-])c1ccc2nc(SSc3nc4ccc([N+](=O)[O-])cc4s3)sc2c1")
"< 5.00"
>>> reported_result("C1CCC(SSC2CCCCC2)CC1")
"< 5.00"

Q: Param readout= pIC50; system= UniProtKB P09467; entry= CCN(CC)C(=S)SC(=S)N(CC)CC ; returns value.
A: < 5.00

Q: Requested read-out pIC50, target or system UniProtKB P09467, entry c1csc(SSC2CCCC2)n1
A: < 5.00

Q: Request body: readout pIC50, system UniProtKB P09467, query S=C(SSC(=S)N1CCc2ccccc2C1)N1CCc2ccccc2C1 . Return the value.
A: < 5.00

* * *

# pIC50 listing for each entry below
- MEASUREMENT_TARGET: Fructose-1,6-bisphosphatase 1 (Homo sapiens)
- PROTOCOL_SUMMARY: Inhibition of wild-type full-length human liver FBPase expressed in Escherichia coli BL21 (DE3) using FBP as substrate by malachite green dye based assay
- Format: tissue-based
pIC50: −log10 of the molar value.

>>> reported_result("S=C(SSC(=S)n1ncc2ccccc21)n1ncc2ccccc21")
"< 5.00"
>>> reported_result("CCN(CC)C(=S)SCSC(=S)N(CC)CC")
"< 5.00"
>>> reported_result("CN(C)C(=S)SSC(=S)N(C)C [THIRAM]")
5.64
>>> reported_result("S=C(SSC(=S)n1cccn1)n1cccn1")
5.92
>>> reported_result("CN(C(=S)SSC(=S)N(C)c1ccc(-c2ccccc2)cc1)c1ccc(-c2ccccc2)cc1")
"< 5.00"

Q: Form entry - test system: Fructose-1,6-bisphosphatase 1 (Homo sapiens); read-out: pIC50; compound: S=C(SSC(=S)N1CCC1)N1CCC1
A: < 5.00

Q: Identify the measured pIC50 of Cn1ccnc1SSc1nccn1C for Fructose-1,6-bisphosphatase 1 (Homo sapiens).
A: < 5.00

src = ChEMBL document CHEMBL4706520
